Source: ChEMBL document CHEMBL1134117

The entries below are paired with their reported pIC50.
Target: Poly [ADP-ribose] polymerase 1 (Homo sapiens, UniProt P09874)
Sequence (P09874 whole entry): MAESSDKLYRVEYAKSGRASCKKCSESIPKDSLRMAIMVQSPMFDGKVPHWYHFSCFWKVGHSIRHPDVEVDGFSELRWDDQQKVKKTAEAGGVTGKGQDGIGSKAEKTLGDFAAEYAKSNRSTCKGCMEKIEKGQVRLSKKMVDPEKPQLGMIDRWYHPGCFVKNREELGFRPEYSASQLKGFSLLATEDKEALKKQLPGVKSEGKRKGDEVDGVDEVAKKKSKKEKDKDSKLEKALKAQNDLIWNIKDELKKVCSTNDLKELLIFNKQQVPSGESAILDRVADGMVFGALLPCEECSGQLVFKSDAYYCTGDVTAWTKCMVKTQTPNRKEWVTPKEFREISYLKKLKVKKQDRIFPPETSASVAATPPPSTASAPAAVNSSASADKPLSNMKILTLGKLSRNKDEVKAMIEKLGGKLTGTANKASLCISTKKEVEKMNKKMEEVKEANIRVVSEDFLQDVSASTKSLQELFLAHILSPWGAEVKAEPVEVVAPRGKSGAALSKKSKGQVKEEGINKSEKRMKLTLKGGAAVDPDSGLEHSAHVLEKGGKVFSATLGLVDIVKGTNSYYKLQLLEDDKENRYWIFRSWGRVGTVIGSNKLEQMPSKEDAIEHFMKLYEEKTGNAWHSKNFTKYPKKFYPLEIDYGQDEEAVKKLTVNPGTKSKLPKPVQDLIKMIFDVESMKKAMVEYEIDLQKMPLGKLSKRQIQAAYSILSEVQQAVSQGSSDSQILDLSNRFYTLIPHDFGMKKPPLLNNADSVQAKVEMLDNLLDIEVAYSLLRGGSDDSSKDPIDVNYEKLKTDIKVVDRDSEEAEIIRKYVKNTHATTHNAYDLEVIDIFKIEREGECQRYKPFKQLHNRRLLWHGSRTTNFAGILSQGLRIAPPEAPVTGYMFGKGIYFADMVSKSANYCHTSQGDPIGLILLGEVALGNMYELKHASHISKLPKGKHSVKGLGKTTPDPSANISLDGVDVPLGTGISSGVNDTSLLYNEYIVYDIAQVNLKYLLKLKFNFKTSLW
Test: Inhibitory concentration against purified recombinant human Poly (ADP-ribose) polymerase 1
pIC50 here is simply -log10 of the concentration when that concentration is written in mol/L.

Look over these answered cases.
{"compoundStructureString": "O=c1[nH]c2cc(S(=O)(=O)O)ccc2c2ccc(F)cc12", "target": "Poly [ADP-ribose] polymerase 1 (Homo sapiens, UniProt P09874)", "pIC50": 8.00}
{"compoundStructureString": "Nc1cc2[nH]c(=O)c3ccccc3c2cc1N", "target": "Poly [ADP-ribose] polymerase 1 (Homo sapiens, UniProt P09874)", "pIC50": 6.74}
{"compoundStructureString": "O=C(O)c1ccc2c(c1)[nH]c(=O)c1ccccc12", "target": "Poly [ADP-ribose] polymerase 1 (Homo sapiens, UniProt P09874)", "pIC50": 7.24}

## Task Fill in pIC50 for record Nc1ccc2[nH]c(=O)c3ccccc3c2c1
## Result 6.74
